System: phosphorylated AKT and phosphorylated Ribosomal Protein S6
Experiment: Western blot of AKT and S6 phosphorylation in Hs578T cells
Format: cell-based, human
Conditions: 48 hours, indicated concentrations
REPORTED_METRIC: S6 phosphorylation (relative to total S6 or vinculin loading control)

Problem: Determine its reported S6 phosphorylation (relative to total S6 or vinculin loading control): C#CCNC(=O)c1ccc2c(Cc3c[nH]c4ccccc34)c[nH]c2c1
Solution: reduces

Problem: Determine its reported S6 phosphorylation (relative to total S6 or vinculin loading control): C#CCN(CCO)C(=O)c1ccc2c(Cc3c[nH]c4ccccc34)c[nH]c2c1
Solution: reduces

Problem: Determine its reported S6 phosphorylation (relative to total S6 or vinculin loading control): C#Cc1ccc2c(C=O)cn(-c3ccccc3)c2c1
Solution: reduces

###

System: PD-L1
Test: Western blot of PD-L1 in Hs578T cells
Format: cell-based, human
Conditions: 48 hours, indicated concentrations of compound
REPORTED_METRIC: PD-L1 levels (relative to vinculin loading control)

Problem: Determine its reported PD-L1 levels (relative to vinculin loading control): Fc1cccc2[nH]cc(Cc3c[nH]c4cccc(F)c34)c12 [Compound 8, bis(4-fluoro-1H-indol-3-yl)methane]
Solution: reduced

Problem: Determine its reported PD-L1 levels (relative to vinculin loading control): C#CCNC(=O)c1ccc2c(Cc3c[nH]c4ccccc34)c[nH]c2c1 [Compound 6]
Solution: reduced
